biological target: Adenosine receptor A1 (Homo sapiens) (UniProt P30542); assay: Displacement of [3H]-DPCPX from human adenosine A1 receptor expressed in CHO cells at 1 uM after 120 mins by liquid scintillation counting; assay type: cell-based
Sequence (P30542 whole entry): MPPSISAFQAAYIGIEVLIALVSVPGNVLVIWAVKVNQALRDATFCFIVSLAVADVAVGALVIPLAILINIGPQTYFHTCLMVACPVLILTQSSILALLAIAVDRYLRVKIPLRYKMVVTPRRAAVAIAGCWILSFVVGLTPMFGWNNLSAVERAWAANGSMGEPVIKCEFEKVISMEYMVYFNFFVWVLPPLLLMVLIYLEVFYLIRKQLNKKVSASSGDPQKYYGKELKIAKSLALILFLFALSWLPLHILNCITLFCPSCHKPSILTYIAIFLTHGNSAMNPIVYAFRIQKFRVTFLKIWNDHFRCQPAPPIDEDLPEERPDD
endpointName: inhibition (%)

Worked cases, inhibition given:
1. COc1ccc(NC(=O)Nc2nc3cn(CCCc4ccccc4)nc3c3nc(-c4ccco4)nn23)cc1
35
2. Cn1ncc2nc(N3CCN(c4ccccc4)CC3)n3nc(-c4ccco4)nc3c21
8
3. CN1CCN(c2nc3cnn(C)c3c3nc(-c4ccco4)nn23)CC1
5

[P] Cn1ncc2nc(N3CCOCC3)n3nc(-c4ccco4)nc3c21
[Q] COc1ccc(NC(=O)Nc2nc3cnn(CCCc4ccccc4)c3c3nc(-c4ccco4)nn23)cc1
Select one: P or Q . Criterion: greater recorded inhibition. Use the label to indicate which entry you chose.
Q
(Q: 38%, P: 6%)
